Test system: AncSZ
Assay: phosphorylation enrichment, bacterial display (enrichment ratio); higher = better substrate or ligand; peptides without Tyr show the background
PROPERTY MEASURED: phosphorylation enrichment
Hey, just send me the number, nothing else.

Query block: Return reported phosphorylation enrichment for target or system AncSZ, item YRNKPYISWPS [CDC42BPB_Y1638_S1633Y] .
Result block: 0.547

Query block: Report the value of phosphorylation enrichment obtained on AncSZ for DFRTTYVNANE [KCNH2_Y475_N470D] .
Result block: 0.732

Query block: With AncSZ as the test system, provide measured phosphorylation enrichment for this sequence: GINDDYGQLKN [NBN_Y679]
Result block: 0.841

Query block: Send back AncSZ phosphorylation enrichment of LIFTNYEVGKD [GSTP1_Y112_A114V_YF] only.
Result block: 2.14

Query block: Provide phosphorylation enrichment, system AncSZ, entry PRARTYCYKQE [KLHDC9_Y175_S171R]
Result block: 0.847

Query block: Identify measured phosphorylation enrichment obtained with AncSZ for AFLEDYFTSTE [SRC_Y522] .
Result block: 1.91

Query block: Determine reported phosphorylation enrichment for DLLNSYIENEG [HSPA4L_Y600] ; test system: AncSZ.
Result block: 0.996

Query block: Consider the sequence KELALYDENWF [RPS19_Y48_P47L] tested on AncSZ; state its phosphorylation enrichment.
Result block: 1.5

Query block: Fetch value of phosphorylation enrichment on AncSZ for TDTQLYGRFGS [ITGA2B_Y384_G380D] .
Result block: 0.783

Query block: Report value: phosphorylation enrichment, system: AncSZ, sequence: SLQSEYVHYGG [CDC14A_Y591]
Result block: 0.919

Query block: Retrieve phosphorylation enrichment on AncSZ; query VFFFSYLLKNH [PTEN_Y180_YF]
Result block: 1.06

Query block: # assay system AncSZ: give phosphorylation enrichment of KDFTIHNPNLL [VANGL1_Y290_Y290H]
Result block: 0.698

Query block: Give phosphorylation enrichment only, for SVTCPYSPALN [TP53_Y126_T125P] , using AncSZ data.
Result block: 0.961

Query block: Look up and report phosphorylation enrichment, with AncSZ as system, for QRIFQYIQSRF [DYRK1B_Y273_YF]
Result block: 1.09

Query block: State recorded phosphorylation enrichment with AncSZ, entry QMQLKYSQSDL [SMC1A_Y714_R711Q] , no comment.
Result block: 0.973

Query block: Return reported phosphorylation enrichment for target or system AncSZ, item IVRSLYEDQED [VHL_Y185_L188Q] .
Result block: 1.39

Query block: Using AncSZ as the test system, report measured phosphorylation enrichment of EAVKNYTDKRG [PBRM1_Y672] .
Result block: 0.56

Query block: State, for AncSZ, measured phosphorylation enrichment of the sequence listed here: VPTSKYRGGGG [HBA1_Y141_L137P]
Result block: 0.392

Query block: Give phosphorylation enrichment; test system AncSZ; sequence FKEDPYLVVNP [MCM6_Y810_E806K_YF]
Result block: 1.19

Query block: Give the observed phosphorylation enrichment of KLQKYYRKNPD [EHHADH_Y683_Q685K] for AncSZ.
Result block: 0.399

Query block: Consider the sequence MDDPRYGMCPL [ZNF100_Y6] tested on AncSZ; state its phosphorylation enrichment.
Result block: 1.16

Query block: Please report the measured phosphorylation enrichment for NGPDVYVLPLT [AATK_Y93] tested on AncSZ.
Result block: 1.33

Query block: Give AncSZ phosphorylation enrichment for the following sequence: ERKQTYGSCRK [LACTB_Y473]
Result block: 0.518

Query block: Check AncSZ data and give phosphorylation enrichment for KLGDVYVNDAF [PGK1_Y161] .
Result block: 0.734

Query block: Provide phosphorylation enrichment, recorded with AncSZ, of TDLAFYLVREG [ASL_Y376_K380E_YF]
Result block: 1.28

Query block: GET phosphorylation enrichment where system = AncSZ and item = VDASYYGGRGV [ANTXR2_Y381]
Result block: 0.702

Query block: Give the observed phosphorylation enrichment of GKFHMYVAVWT [F13A1_Y161_R159H] for AncSZ.
Result block: 1.18

Query block: Enter phosphorylation enrichment (test system AncSZ) for TKFVAYIESQG [KDM4B_Y34_N29T_YF]
Result block: 0.974

Query block: State the measured phosphorylation enrichment (AncSZ) of KDIENYIQDGK [RAD50_Y964]
Result block: 0.923

Query block: Report value only: phosphorylation enrichment, AncSZ, RQQQDYWLMDV [ANPEP_Y600_I603M]
Result block: 1.8

Query block: Lab note: AncSZ assay, enter phosphorylation enrichment for RLDPVYFVAPA [LAMC2_Y250] here
Result block: 1.46

Query block: Supply phosphorylation enrichment measured with AncSZ for IRDLKYTIENP [SND1_Y178] .
Result block: 1.21

Query block: Quote phosphorylation enrichment with test system AncSZ for EKMWSYMKSAE [GRIA3_Y705]
Result block: 0.939

Query block: Report phosphorylation enrichment from AncSZ testing of DENWFYTRAAF [RPS19_Y54_S59F]
Result block: 1.25

Query block: State phosphorylation enrichment (AncSZ) of KYVVVYFREID [IL17RB_Y447] .
Result block: 1.61

Query block: Find phosphorylation enrichment for EHTILYSNNST [KANSL1_Y223_T221I] on AncSZ and write it down.
Result block: 0.715

Query block: Check AncSZ data and give phosphorylation enrichment for SWSTSYSGYRC [NKAPL_Y91_Y96C] .
Result block: 0.944

Query block: State phosphorylation enrichment on AncSZ. Entry: EWQQTYTYDSG [JUP_Y20]
Result block: 1.12

Query block: # return phosphorylation enrichment of RHFSSYSQMEN [PKP1_Y120_R116H] (system: AncSZ)
Result block: 1.02

Query block: Give phosphorylation enrichment only, for PFSNSYENSLI [EPOR_Y489_P488S_YF] , using AncSZ data.
Result block: 1.4

Query block: Answer with phosphorylation enrichment of DRPASYKKKSM [PDGFRA_Y768] measured for AncSZ.
Result block: 0.383

Query block: Recall the reported phosphorylation enrichment of GKFRMYVAVWT [F13A1_Y161] when tested on AncSZ.
Result block: 1.14

Query block: Lab note: AncSZ assay, enter phosphorylation enrichment for GREEFYSTHPH [LRRK2_Y1402] here
Result block: 0.576

Query block: With AncSZ as the test system, provide measured phosphorylation enrichment for this sequence: PSSRDYKDNIK [PIGN_Y227_H229D]
Result block: 0.556

Query block: Look up and report measured phosphorylation enrichment (AncSZ) for the following sequence: GIFSGYDDAWD [POLR1C_Y36_N32I_YF]
Result block: 1.1

Query block: State measured phosphorylation enrichment of the sequence YRTPGYREVVI [TNS2_Y673_A670T] with AncSZ.
Result block: 0.799

Query block: Give phosphorylation enrichment for GGKFSYLKVGH [GRM3_Y480_YF] tested on AncSZ.
Result block: 0.634

Query block: Provide phosphorylation enrichment, system AncSZ, entry RLNCIYFKDQT [RS1_Y165_W163C_YF];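 also: frequency after pTyr selection over input frequency; kinase dosed for 20-30% of maximal phosphorylation in three min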
Result block: 1.16

Query block: GET phosphorylation enrichment | system: AncSZ | item: LADKPYTFEDF [FXN_Y118_YF];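 also: frequency after pTyr selection over input frequency; kinase dosed for 20-30% of maximal phosphorylation in three min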
Result block: 2.9

Query block: With AncSZ as the test system, provide measured phosphorylation enrichment for this sequence: GNEEAYGSSHI [FAM171B_Y522_R524S]
Result block: 0.763

Query block: // fetch phosphorylation enrichment for TAALWYIYSHT [ENG_Y612] ; system: AncSZ;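 also: frequency after pTyr selection over input frequency; kinase dosed for 20-30% of maximal phosphorylation in three min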
Result block: 1.15

Query block: Using AncSZ as the test system, report measured phosphorylation enrichment of FKIFLYTLNDN [FN1_Y1975_YF] .
Result block: 1.3

Query block: State, for AncSZ, measured phosphorylation enrichment of the sequence listed here: GHLYACDWISI [BEST1_Y227_Y227C]
Result block: 1.21

Query block: Give phosphorylation enrichment for this entry on AncSZ: VVHSSYDEIEG [SEC24A_Y263]
Result block: 1.04

Query block: Fill: phosphorylation enrichment (AncSZ) for this sequence HDEPTYARSSK [PEAK1_Y616]
Result block: 0.785

Query block: Report phosphorylation enrichment under test system AncSZ for SPDMLYQYLKQ [RPAP3_Y567] .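 Also: 11-residue human phosphosite peptides and single-mutation variants displayed on the E. coli surface, counted by deep sequencing, each peptide's frequency after selection divided by its frequency in the unselected input library.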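 Also: frequency after pTyr selection over input frequency; kinase dosed for 20-30% of maximal phosphorylation in three min.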
Result block: 1.09

Query block: Give phosphorylation enrichment only, for DLDFTYIFPNI [PTEN_Y27_L25F_YF] , using AncSZ data.
Result block: 3.5

Query block: Please look at SEPDLYCDPRG [PKP1_Y160] and tell me its recorded phosphorylation enrichment on AncSZ.
Result block: 2.48

Numbers sourced from the supplement of paper PMC10065799.
